Tested on: Macaca fascicularis PRLR (mfPRLR.mmh; SEQ ID NO:403)
Sequence (as listed by the source): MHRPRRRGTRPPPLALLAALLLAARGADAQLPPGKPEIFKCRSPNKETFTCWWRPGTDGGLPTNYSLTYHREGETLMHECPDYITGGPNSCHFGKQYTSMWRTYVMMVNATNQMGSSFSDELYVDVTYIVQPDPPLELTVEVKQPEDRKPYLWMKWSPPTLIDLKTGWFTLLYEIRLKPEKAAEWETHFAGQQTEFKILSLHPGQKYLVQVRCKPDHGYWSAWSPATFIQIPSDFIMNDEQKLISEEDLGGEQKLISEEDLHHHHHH
Experiment: Surface plasmon resonance (Biacore T200), antibody-capture format
Type: binding
Details: 37° C., analyte mfPRLR.mmh
quantity: ka (M/s)
State the answer as a number, implicitly in M/s.

molecule	quantity	units.of.measure	value.reported
H1H6785P: fully human anti-PRLR antibody, human IgG1 Fc; HCVR/LCVR SEQ ID NOs 98/106 (antibody, V domains shown) VH: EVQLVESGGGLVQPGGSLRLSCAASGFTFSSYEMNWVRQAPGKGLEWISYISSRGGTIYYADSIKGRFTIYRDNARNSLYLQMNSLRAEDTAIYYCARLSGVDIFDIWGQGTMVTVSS VL: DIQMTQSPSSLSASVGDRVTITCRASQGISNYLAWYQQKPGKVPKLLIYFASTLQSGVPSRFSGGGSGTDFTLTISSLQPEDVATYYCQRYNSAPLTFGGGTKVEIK	ka	M/s	297000

Shift focus to the following entry.
Query: Item H1H6797P: fully human anti-PRLR antibody, human IgG1 Fc; HCVR/LCVR SEQ ID NOs 178/186 (antibody, V domains shown) VH: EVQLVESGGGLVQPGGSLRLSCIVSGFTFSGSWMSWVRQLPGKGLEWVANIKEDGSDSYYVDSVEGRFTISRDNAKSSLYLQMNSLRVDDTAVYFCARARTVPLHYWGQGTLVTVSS VL: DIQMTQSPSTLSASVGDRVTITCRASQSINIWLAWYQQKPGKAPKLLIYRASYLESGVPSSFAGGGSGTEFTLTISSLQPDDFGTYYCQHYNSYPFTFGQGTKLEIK has what recorded ka?
Result: 914000
